Source listed as ChEMBL document CHEMBL1124186.

The following compounds are shown together with reported MIC values.
# System: Streptococcus pyogenes
# experiment: In vitro antimicrobial activity against Streptococcus pyogenes C203
# Type: functional
test.readout: MIC (µg/mL)

| molecular.string | recorded.result |
| --- | --- |
| CC[C@H]1OC(=O)C[C@@H](O)[C@H](C)[C@@H](O[C@@H]2O[C@H](C)[C@@H](O[C@H]3C[C@@](C)(O)[C@@H](O)[C@H](C)O3)[C@H](N(C)C)[C@H]2O)[C@@H](C)C[C@@H](C)C(=O)/C=C/C(C)=C/[C@@H]1CO[C@@H]1O[C@H](C)[C@@H](O)[C@@H](O)[C@H]1OC | 2 |
| CC[C@H]1OC(=O)C[C@@H](O)[C@H](C)[C@@H](O[C@@H]2O[C@H](C)[C@@H](O)[C@H](N(C)C)[C@H]2O)[C@@H](CCN2CCCCCCC2)C[C@@H](C)C(=O)/C=C/C(C)=C/[C@@H]1CO[C@@H]1O[C@H](C)[C@@H](O)[C@@H](O)[C@H]1OC | 0.5 |
| CC[C@H]1OC(=O)C[C@@H](O)[C@H](C)[C@@H](O[C@@H]2O[C@H](C)[C@@H](O[C@H]3C[C@@](C)(O)[C@@H](O)[C@H](C)O3)[C@H](N(C)C)[C@H]2O)[C@@H](CCO)C[C@@H](C)C(=O)/C=C/C(C)=C/[C@@H]1C | 64 |
| CC[C@H]1OC(=O)C[C@@H](O)[C@H](C)[C@@H](O[C@@H]2O[C@H](C)[C@@H](O[C@H]3C[C@@](C)(O)[C@@H](O)[C@H](C)O3)[C@H](N(C)C)[C@H]2O)[C@@H](CCI)C[C@@H](C)C(=O)/C=C/C(C)=C/[C@@H]1CO[C@@H]1O[C@H](C)[C@@H](O)[C@@H](O)[C@H]1OC | 4 |
